Test: thallium influx changes without GIRK channels – cell-based, HEK-293 rmGlu8, no GIRK, thallium flux, counter-screen for GIRK activator project, confirmation (AID 623868);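 also: extra codes mark interference with 3 for fluorescent and 4 for baseline rise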
Conditions: thallium flux fluorescence, at 10 µM, actives lie on both sides, codes: 1 enhancer, -1 blocker, 0 none, thallium stimulus containing EC20 glutamate
The campaign covered roughly 2,100 compounds. About 760 (36%) were called active. A selection follows.
measured quantity: manual score
Number only, please.

C=C(C)CNC(=S)N/N=C(\C)c1ccc(Cl)s1: 1

Query string: # query: manual score of entry `Cc1cccc(OCCn2c(=S)[nH]c3ccccc32)c1`
Result string: 0

Query string: Please answer likewise for `COc1ccc(-n2cc(-c3ccccc3)[nH]c2=S)cc1`
Result string: 1

Query string: And then `O=C(NC(=S)N1CCc2ccccc21)c1ccccc1Br` , what is it?
Result string: 1

Query string: Moving on to the next compound: `COCCCNCCCOc1ccc(Cl)cc1Br`
Result string: 0

Query string: Try `O=C(CNC(=S)NC(=O)c1cccs1)c1ccccc1` next.
Result string: 1

Query string: Please give the result for CCC1CCCCN1C(=S)NC(=O)c1ccc([N+](=O)[O-])cc1 (stereo not drawn) too.
Result string: 1

Query string: Same thing, different compound: `C/C(=N\NC(=O)c1csc(C)c1C)c1ccc(Cl)s1`
Result string: 1

Query string: Now the same for `COc1cccc(NC(=O)NCCCSC2CCCCC2)c1`
Result string: 0

Query string: Another compound to check: CC(C)(C)CC(C)(C)NCC(O)COc1c(F)cc(Br)cc1F (stereo not drawn)
Result string: 4

Query string: `Cn1c(-c2ccc(-c3ccccc3)cc2)c[nH]c1=S` ?
Result string: 0

Query string: Follow-up item: CCN(CC)CC(O)COCCC12CC3CC(CC(C3)C1)C2 (stereo not drawn)
Result string: 0

Query string: What would you report for `COc1ccc(OC)c(-c2c3cc(O)c(=O)cc-3oc3cc(O)c(O)cc23)c1` ?
Result string: 0

Query string: Next compound: `O=C(c1ccccc1)N1CCCc2ccccc21`
Result string: 0

Query string: Follow-up item: CCC1CCCCN1C(=O)CSc1nnc(-c2ccco2)o1 (stereo not drawn)
Result string: 0

Query string: Try this compound too: `COC(=O)c1cc2sccc2n1CC(=O)N1CCCc2ccccc21`
Result string: 0

Query string: Let us now turn to `O=C(COc1c(Br)cc(Br)c2cccnc12)N1CCc2ccccc2C1`
Result string: 1

Query string: # repeat for `CCC/C(=N/NC(=O)c1csc(C)c1C)c1ccc(Cl)s1`
Result string: 0

* * *

Assay: thallium influx changes without GIRK channels – cell-based, HEK-293 rmGlu8, no GIRK, thallium flux, counter-screen for GIRK activator project, confirmation (AID 623868);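 also: extra codes mark interference with 3 for fluorescent and 4 for baseline rise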
Details: thallium flux fluorescence, at 10 µM, actives lie on both sides, codes: 1 enhancer, -1 blocker, 0 none, thallium stimulus containing EC20 glutamate
The whole screen tested about 2,100 compounds, of which about 760 (36%) were called active. The list is a sample of the results.
Measured manual score of individual entries
Form: value (number only, do not type unit).

// known answers, use as guide
COc1ccc(C(=O)NC(=S)NNC(=O)CCc2ccccc2)cc1: 1
CCCC(=O)Nc1ccccc1N1CCN(C(=O)c2ccccc2)CC1: -1
CCOC(=O)c1cnn2c1[nH]c(=O)c1ccccc12: 1

Query string: Need manual score, item `CC/C(=N\NC(=S)Nc1cc(C)ccc1C)c1ccc(OC(F)F)cc1`
Result string: 0

Query string: Also need `COC(=O)c1ccc(NC(=O)C23CC4CC(C2)CC(n2cncn2)(C4)C3)cc1` , thanks.
Result string: 0

Query string: For `COc1ccc(C(=O)CC(=O)C(=O)NCCc2cccc(C)c2)cc1` then?
Result string: 0.5

* * *

Entries and their measured manual score follow.
Assay: thallium influx changes without GIRK channels – cell-based, HEK-293 rmGlu8, no GIRK, thallium flux, counter-screen for GIRK activator project, confirmation (AID 623868);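 also: extra codes mark interference with 3 for fluorescent and 4 for baseline rise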
Details: thallium flux fluorescence, at 10 µM, actives lie on both sides, codes: 1 enhancer, -1 blocker, 0 none, thallium stimulus containing EC20 glutamate
In all, about 2,100 compounds went through this assay and about 760 (36%) were called active. Only a sample is shown.

Completed entries (count: 6):
CC(=O)/C(=N\Nc1ccc(Cl)cc1Cl)Sc1cccc2cccnc12: 1 (active)
Cc1ccc(/C=C/C(=O)c2ccccc(=O)c2O)cc1C: 1 (active)
CC(C)c1ccccc1NC(=O)COC(=O)/C=C/c1cccc([N+](=O)[O-])c1: 0 (inactive)
O=C(Nc1nc(-c2cc3ccccc3oc2=O)cs1)c1ccc(Br)o1: 0 (inactive)
CC1CC(=S)Nc2ccccc2N1Cc1ccccc1 (stereo not given): 0 (inactive)
O=C(CNC(=S)NC(=O)c1ccco1)c1ccccc1: 1 (active)

Query string: Recorded manual score of `O=C(NCc1ccccc1)c1ccc2c(=O)n(CCCN3CCCC3=O)c(=S)[nH]c2c1` , please.
Result string: 0 (inactive)

Query string: Again, but for CC1CSc2ccccc2NC1=S (stereo not given)
Result string: 0 (inactive)

Query string: // same read-out, input: `CN1/C(=C\C=C2/C(=O)Oc3ccccc3C2=O)C(C)(C)c2ccccc21`
Result string: 3 (inactive)

Query string: Try this molecule next: `CC(C)CCn1c(CN2CCN(Cc3ccccc3)CC2)nc2c1c(=O)[nH]c(=O)n2C`
Result string: 0 (inactive)

Query string: Likewise for `O=c1c2ccccc2[nH]c(=S)n1CCN1CCN(Cc2ccccc2)CC1` ?
Result string: 1 (active)

Query string: Then what about the molecule Cc1ccc(-c2nnn(CC(=O)NC3CC4CCC3C4)n2)cc1 (stereo not given) ?
Result string: 0 (inactive)

Query string: Try this molecule next: `S=c1nc[nH]c2c1sc1nc(-c3ccccc3)c3c(c12)CCCC3`
Result string: 1 (active)

Query string: Do the same for `CCCCCCN1C2=NCCN2c2ccccc21` please
Result string: 0 (inactive)

Query string: Another molecule to look at: `Cc1ccccc1C(=O)NC(=S)NCCc1ccccc1`
Result string: 0 (inactive)

* * *

Assay: thallium influx changes without GIRK channels – cell-based, HEK-293 rmGlu8, no GIRK, thallium flux, counter-screen for GIRK activator project, confirmation (AID 623868);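 also: extra codes mark interference with 3 for fluorescent and 4 for baseline rise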
Settings: thallium flux fluorescence, at 10 µM, actives lie on both sides, codes: 1 enhancer, -1 blocker, 0 none, thallium stimulus containing EC20 glutamate
Screen size: about 2,100 compounds; about 760 (36%) were called active. Not all results are given here.
Each item that follows carries a reported manual score.
Reply: number alone, nothing else.

Examples from the recorded data:
CC1(C)CC2CC(C)(CN2C(=S)NC(=O)c2ccccc2Cl)C1 (stereo unspecified): 1
Cc1ccc(C)c(-n2nnnc2SCC(=O)Nc2cccc(-c3nnc4n3CCCCC4)c2)c1: 3
COc1ccccc1N1CCN(Cc2cc(Br)c(O)c3ncccc23)CC1: 1
COC(=O)c1cc(=O)n(CCc2ccc(OC)cc2)c(=Nc2ccc(F)c(Cl)c2)s1: 0
O=C(N/N=C1/C(=O)c2cccc3cccc1c23)c1ccc(Cl)cc1: 1

Query string: Endpoint output: manual score of `CCCCNc1c2c3c(cccc3n(C)c1=O)C(=O)c1ccccc1-2` . Value?
Result string: 3

Query string: Please give the result for `COc1cccc(NC(=O)CSc2nnc(-c3ccoc3C)n2-c2ccccc2)c1` too.
Result string: 0

Query string: Then this molecule: `CCn1c(=O)cc(OCC(=O)Nc2cccc(C)n2)c2ccccc21`
Result string: 0

Query string: Also check `COc1ccc(C)cc1NC(=O)C(=O)NNC(=O)c1ccco1`
Result string: 1

Query string: Field entry: `COC(=O)[C@H](CC(C)C)NC(=O)Nc1ccc2c(c1)OCCO2`
Result string: 0

Query string: Do the same for `CCCCN(C)C1=Nc2cccc3cccc1c23` please
Result string: 0

Query string: How about this molecule: `O=c1c2c(nc3c(-c4cccc(Br)c4)c[nH]n13)CCCC2`
Result string: 0

Query string: Would you kindly repeat that for `CCCCNC(=S)N/N=C1\C(=O)c2cccc3cccc1c23` ?
Result string: 1

Query string: What about this molecule? `O=c1[nH]c(SCc2ccccc2Cl)nc2c1CCCC2`
Result string: 0

Query string: Next record, please: `CCOC(=O)c1cccc(NC(=O)CSc2nnc(C3CCCCC3)n2C)c1`
Result string: -1

Query string: What about this molecule? `CCOC(=O)c1ccccc1NC(=O)CSc1nnc(COc2ccccc2)n1CC`
Result string: 0

Query string: Could you do the same for `CCOC(=O)/C(=C\C=C1/Sc2cc(OCC)c(OCC)cc2N1CC)C(C)=O` , please?
Result string: 3

Query string: Subsequent entry: CCN(Cc1ccccc1)C(c1ccccn1)c1nnnn1C1CCCCC1 (stereo unspecified)
Result string: 0

Query string: Now try `CCOC(=O)Cc1csc(NC(=S)NC(=O)c2ccc(C)cc2)n1` .
Result string: 1

Query string: And `CCOC(=O)Cc1csc(NC(=S)NC(=O)c2ccccc2)n1` ?
Result string: 1

Query string: Subsequent entry: CCC(C)(C)n1nnnc1C(c1ccccn1)N1CCCCC1 (stereo unspecified)
Result string: 0

Query string: Similarly, `CCOC(=O)/C(=C/C=C1\Sc2ccccc2N1CC)C(C)=O` ?
Result string: 3

Query string: # repeat for `CCOc1ccccc1N1CCN(S(=O)(=O)c2cccs2)CC1`
Result string: 0

Query string: Now this one: `Cc1nc2ccccn2c1-c1csc(NCc2ccco2)n1`
Result string: -0.5

Query string: Follow-up entry: `CCOc1cc(C)nc(N2CCN(C3CCCCC3)CC2)n1`
Result string: 0

Query string: And what about the molecule `O=C(Nc1ccc2c(c1)OCCO2)NC12CC3CC(CC(C3)C1)C2` ?
Result string: 0
